Data provenance is patent US20140308287A1.

# MEASURED_TARGET: T1, human ErbB3-Fc (R&D Systems) (human, UniProt P21860 20-643)
# T1 construct: Bought protein; also called wild-type ErbB3-Fc fusion; immobilized ErbB3; not shown: Fc part of the bought fusion protein; not described
# PROTOCOL_DESCRIPTION: ELISA on ErbB3-Fc, soluble monovalent Sab (Example 42)
MEASUREMENT_KIND: EC50 (nM)

| BINDER | RESULT_UNITS | VALUE |
| --- | --- | --- |
| 2995-B04 (other) VH: EVQLLESGGGLVQPGGSLRLSCAASGFTFSNYWMHWVRQAPGKGLEWVALISNNGTYTYYADSVKGRFTISRDNSKNTLYLQMNSLRAEDTAVYYCAKDNFILLNSWFDYWGQGTLVTVSS light: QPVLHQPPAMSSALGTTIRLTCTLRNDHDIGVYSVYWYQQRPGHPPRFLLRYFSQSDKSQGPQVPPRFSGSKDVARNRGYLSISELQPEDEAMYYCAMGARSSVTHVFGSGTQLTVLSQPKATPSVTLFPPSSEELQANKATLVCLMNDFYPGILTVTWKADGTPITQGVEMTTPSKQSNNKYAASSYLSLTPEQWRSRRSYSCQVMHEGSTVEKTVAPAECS | nM | 0.021 |
| 2995-A06 (other, copies: 1 + 1) VH: EVQLLESGGGLVQPGGSLRLSCAASGFTFSSYWMHWVRQAPGKGLEWVAGISDGGAYTYYADSVKGRFTISRDNSKNTLYLQMNSLRAEDTAVYYCAKDNFILLNSWFDYWGQGTLVTVSS surrogate light: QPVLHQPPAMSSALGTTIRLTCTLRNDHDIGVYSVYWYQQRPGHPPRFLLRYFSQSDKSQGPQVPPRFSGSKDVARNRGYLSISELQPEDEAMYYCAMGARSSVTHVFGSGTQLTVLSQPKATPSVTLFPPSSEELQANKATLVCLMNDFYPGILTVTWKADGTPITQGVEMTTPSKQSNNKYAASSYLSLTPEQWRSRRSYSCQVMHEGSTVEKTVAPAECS | nM | 0.032 |
